Run Description: Acute toxicity, oral, rats
Reported Conditions: rat, in vivo, po
Observation Type: LD50

Data request: Give LD50 for the following compound: `C[C@H](O)[C@H](O)[C@H]1CNc2nc(N)[nH]c(=O)c2N1`
Data returned: ≥ 2000 mg/kg
